- measurement description: Encapsulation efficiency of lipid nanoparticles, Quant-it Ribogreen RNA assay
- Format: physicochemical
- recorded conditions: LNP of lipid/DSPC/cholesterol/PEG-lipid 50:10:38.5:1.5 encapsulating hEPO mRNA
observation type: Encapsulation Efficiency (%)
All answers are understood in %, so give the number only.

CCCCCCCCC(CCCCCCCC)CNC(=O)CCCCCN(CC=C(C)C)CCN(CCO)CCCCCC(=O)NCC(CCCCCCCC)CCCCCCCC ... 93.47
CCCCCCCCC(CCCCCC)CNC(=O)CCCCCN(CCO)CCN(CCCCC(COC(=O)CCCCCCC)COC(=O)CCCCCCC)C1CC1 (stereo not drawn) ... 89.57
CCCCCCCC(=O)OCC(CCCCN(CCO)CCN(CCCCC(COC(=O)CCCCCCC)COC(=O)CCCCCCC)C1CCC1)COC(=O)CCCCCCC ... 89.25
CCCCCCCCC(CCCCCC)CNC(=O)CCCCCN(C)CCN(CCO)CCCCC(COC(=O)CCCCCCC)COC(=O)CCCCCCC (stereo not drawn) ... 89.17
CCCCC/C=C\CCCC(CCC/C=C\CCCCC)COC(=O)CCCCCN(CCO)CCN(CCCCCC(=O)OCC(CCC/C=C\CCCCC)CCC/C=C\CCCCC)C1CCCCC1 ... 96.4

Now take the following molecule into account.
Briefly, Encapsulation Efficiency measured for CCCCCCCCCCCOC(=O)CCCCCN(CCN(CCO)CCCCCC(=O)OCC(CCCCCC)CCCCCCCC)C1CCC1 (stereo not drawn) : 91.9

---

- measurement description: Encapsulation efficiency of lipid nanoparticles, Quant-it Ribogreen RNA assay
- Type: physicochemical
- recorded conditions: LNP of lipid/DSPC/cholesterol/PEG-lipid 50:10:38.5:1.5 encapsulating hEPO mRNA
Mark Fulfilled for reported Encapsulation Efficiency of 90% or greater; mark Not fulfilled for anything smaller.

Study these solved cases before continuing.
CCCCCCCCC(CCCCCCCC)CNC(=O)CCCCCN(CCO)CCN(CCCCCC(=O)NCC(CCCCCCCC)CCCCCCCC)C1CCC1 [Compound 11] ... Not fulfilled
CCCCCCCCC(CCCCCCCC)COC(=O)CCCCCN(CCO)CCN(CCCCCC(=O)OCC(CCCCCCCC)CCCCCCCC)C1CCSCC1 [Compound 30] ... Fulfilled
CCCCCCCCC(CCCCCCCC)COC(=O)CCCCCN(C)CCN(CCCCCC(=O)OCC(CCCCCCCC)CCCCCCCC)CCNc1c(NC)c(=O)c1=O [Compound 79] ... Fulfilled
CCCCCCCCC(CCCCCCCC)CNC(=O)CCCCCN1CCC(N(CCO)CCCCCC(=O)NCC(CCCCCCCC)CCCCCCCC)CC1 [Compound 172] ... Fulfilled
CCCCCCCC(=O)OCC(CCCCN(CCO)CCCCN(CCCCC(COC(=O)CCCCCCC)COC(=O)CCCCCCC)C(C)C)COC(=O)CCCCCCC [Compound 189] ... Fulfilled
CCCCCCCCC(CCCCCC)COC(=O)CCCCCN(CCO)CCN(CCCCC(COC(=O)CCCCCCC)COC(=O)CCCCCCC)C1CC1 (stereo not shown) [Compound 154] ... Not fulfilled

Shifting focus to the compound that follows.
Task item: Threshold query (Encapsulation Efficiency >= 90%) on CCCCCCCC(=O)OCC(CCCCN(CC=C(C)C)CCCCN(CCO)CCCCC(COC(=O)CCCCCCC)COC(=O)CCCCCCC)COC(=O)CCCCCCC [Compound 203]
Reply: Not fulfilled

---

- measurement description: Lipid nanoparticle size and polydispersity by dynamic light scattering
- Assay type: physicochemical
- recorded conditions: LNP of lipid/DSPC/cholesterol/PEG-lipid 50:10:38.5:1.5 encapsulating hEPO mRNA
observation type: polydispersity
Give only the figure.

In the examples that follow, each entry is paired with its recorded polydispersity.
CCCCCCCCC(CCCCCCCC)CNC(=O)CCCCCN(CCCCN(CCO)CCCCC(COC(=O)CCCCCCC)COC(=O)CCCCCCC)C1CCC1 ... 0.139
CCCCCCCCC(CCCCCCCC)COC(=O)CCCCCN(CCO)CCN(CCCCCC(=O)OCC(CCCCCCCC)CCCCCCCC)Cc1ccccc1 ... 0.093
CCCCCCCCCCCOC(=O)CCCCCN(CCN(CCO)CCCCCC(=O)NCC(CCCCCCCC)CCCCCCCC)C1CCCCC1 ... 0.081

Now take the following compound into account.
Briefly, polydispersity measured for CCCCCCCCCCCC(=O)OCCCCCN(CCN(CCO)CCCCCOC(=O)CC(CCCCCCCC)CCCCCCCC)C1CCCCCC1 : 0.061

---

Consider the following compounds and their measured polydispersity readings.
- measurement description: Lipid nanoparticle size and polydispersity by dynamic light scattering
- Type: physicochemical
- recorded conditions: LNP of lipid/DSPC/cholesterol/PEG-lipid 50:10:38.5:1.5 encapsulating hEPO mRNA
Give only the figure.

In the examples that follow, each entry is paired with its recorded polydispersity.
CCCCCCCCC(CCCCCC)COC(=O)CCCCCN(CCO)CCN(CCCCCC(=O)OCC(CCCCCC)CCCCCCCC)C1CC1 (stereo not drawn) [Compound 9] ... 0.181
CCCCCCCCC(CCCCCCCC)COC(=O)CCCCCN(CCO)CCN(CCCCCOC(=O)CCCCCC(CCCCCC)CCCCCC)C1CCC1 [Compound 83] ... 0.032
CCCCCCCCC(CCCCCCCC)CNC(=O)CCCCCN(CCO)CCN(CCCCCC(=O)NCC(CCCCCCCC)CCCCCCCC)C1CCC1 [Compound 11] ... 0.055
CCCCCCCCCCCOC(=O)CCCCCN1CCC(N(CCO)CCCCCC(=O)OCC(CCCCCCCC)CCCCCCCC)CC1 [Compound 173] ... 0.068

Briefly, polydispersity measured for CCCCCCCCC(CCCCCC)CNC(=O)CCCCCN(CCCCCO)CCN(CCCCC(COC(=O)CCCCCCC)COC(=O)CCCCCCC)C1CCCCCCC1 (stereo not drawn) [Compound 210] : 0.06

Briefly, polydispersity measured for CCCCCCCCC(CCCCCC)COC(=O)CCCCCN(CCO)CCN(CCCCC(COC(=O)CCCCCCC)COC(=O)CCCCCCC)C1CC1 (stereo not drawn) [Compound 154] : 0.101

---

- measurement description: Lipid nanoparticle size and polydispersity by dynamic light scattering
- Assay type: physicochemical
- recorded conditions: LNP of lipid/DSPC/cholesterol/PEG-lipid 50:10:38.5:1.5 encapsulating hEPO mRNA
Mark yes for reported size (nm) of 70 nm or greater; mark no for anything smaller.

Study these solved cases before continuing.
CCCCCCCCC(CCCCCCCC)COC(=O)CCCCCN(CCCCCN(CCO)CCCCC(COC(=O)CCCCCCC)COC(=O)CCCCCCC)C1CCC1 ... yes
CCCCCCCCCCC(=O)OCC(CCCCN(CCO)CCN(CCCCC(COC(=O)CCCCCCCCCC)COC(=O)CCCCCCCCCC)C1CCC1)COC(=O)CCCCCCCCCC ... yes
CCCCCCCCC(CCCCCC)COC(=O)CCCCCN(CCCCN(CCO)CCCCC(COC(=O)CCCCCCC)COC(=O)CCCCCCC)C1CCCCCCC1 (stereo not shown) ... yes
CCCCCCCCCCCOC(=O)CCCCCN(CCN(CCO)CCCCCC(=O)OCC(CCCCCC)CCCCCCCC)C1CC1 (stereo not shown) ... yes

Task item: Threshold query (size (nm) >= 70 nm) on CCCCCCCCC(CCCCCCCC)COC(=O)CCCCCN(C)CCN(CCO)CCCCCC(=O)OCC(CCCCCCCC)CCCCCCCC
Reply: no

---

- measurement description: Lipid clearance study: lipid remaining in liver tissue by LC-MS/MS
- recorded conditions: 24 h; ICR female mice, 0.5 mg/kg i.v. bolus dose mRNA
observation type: % Dose Remaining in Liver Tissue (%)
All answers are understood in %, so give the number only.

In the examples that follow, each entry is paired with its recorded % Dose Remaining in Liver Tissue.
CCCCCCCCC(CCCCCCCC)CNC(=O)CCCCCN1CCC(N(CCO)CCCCC(COC(=O)CCCCCCC)COC(=O)CCCCCCC)CC1 ... 1.03
CCCCCCCCCCCOC(=O)CCCCCN(CCN(CCO)CCCCCOC(=O)N(CCCCCCCC)CCCCCCCC)C1CCCCC1 ... 16.39
CCCCCCCCC(CCCCCCCC)COC(=O)CCCCCN(CCCCN(CCO)CCCCC(COC(=O)CCCCCCC)COC(=O)CCCCCCC)C1CCC1 ... 1.98
CCCCCCCC(=O)OCC(CCCCN(CCO)CCN(CCCCC(COC(=O)CCCCCCC)COC(=O)CCCCCCC)C1CCC1)COC(=O)CCCCCCC ... 0.00

Briefly, % Dose Remaining in Liver Tissue measured for CCCCCCCCC(CCCCCCCC)CC(=O)NCCCCCN(CCN(CCO)CCCCCOC(=O)CC(CCCCCCCC)CCCCCCCC)C1CCCCCC1 : 50.42

Briefly, % Dose Remaining in Liver Tissue measured for CCCCCCCCCCCOC(=O)CCCCCN(CCN(CCO)CCCCCC(=O)OCC(CCCCCCCC)CCCCCCCC)C1CCCCC1 : 67.66
